B1: MATN2 (parent)
chain: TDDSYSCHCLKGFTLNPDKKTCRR

Variants of: B1
Assay: protein stability index of a GFP-peptide fusion (GPS, HEK-293T) (PSI 1-6); higher = more stable;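 further: lentivirally expressed fusions sorted by FACS into six bins by GFP to DsRed ratio, PSI derived from sequencing read proportions per bin multiplied by bin number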
Conditions: c terminus: a fixed tail appended
Please note: t applies when protein stability index is 2 or greater, and f applies otherwise.

>>> cat("G12Y")
"f"
>>> cat("D2Y")
"f"
>>> cat("K20M")
"f"
>>> cat("C7Q")
"t"
>>> cat("D3G")
"t"
>>> cat("K19C")
"t"
>>> cat("T14H")
"t"
>>> cat("D3V")
"t"

Exam item: Hello, I need to know if S6H has measured protein stability index not below 2. Thanks!
Marked response: t

Exam item: Assess whether reported protein stability index for K20D sits at 2 or higher.
Marked response: t

Exam item: Has K19W a recorded protein stability index greater than or equal to 2?
Marked response: f
